tested on: antibodies in sera from SARS patients (sera 1a, 1b, 2, 6, 37, 62, London, SARS-yellow, SARS-green); assay type: binding, human; parameters: unit not given here
reportedProperty: Binding of serum 6 to linear peptides of protein X2

Example sequences with recorded Binding of serum 6 to linear peptides of protein X2:
sequenceCode | result
CKYTQSTALQELLIQ | 0.4
IQFMMSRRRLLACLC | 0.6
TAFQHQNSKKTTKLV | 0.7

Specify Binding of serum 6 to linear peptides of protein X2 for QELLIQQWIQFMMSR and stop.
0.3

For the sequence MAISPKFTTSLSLHK , report Binding of serum 6 to linear peptides of protein X2.
0.6

Answer with reported Binding of serum 6 to linear peptides of protein X2 of SLLKTHRMCKYTQST
0.6

Identify the reported Binding of serum 6 to linear peptides of protein X2 for the following entry. KVTAFQHQNSKKTTK
0.2

Specify reported Binding of serum 6 to linear peptides of protein X2 for the sequence shown: QSTALQELLIQQWIQ
0.4

# return recorded Binding of serum 6 to linear peptides of protein X2 for entry HKLLQTLVLKMLHSS
0.2
